Would you mind telling me the reported logP of each entry?
testSummary: Measurement of log P values by HPLC on reversed phase columns (methods [a] pH 2.3, [b] pH 2.7, [c] pH 7.8)
Type: physicochemical
assayContext: HPLC reversed phase, method [b] (pH 2.7)

Entry O=C(NC1CCCCC1c1ccccc1Cl)c1ccccc1Cl (stereo not shown) has what logP?
3.88^[b]

Moving on to the next compound: O=C(NC1CC1c1ccc(Cl)cc1)c1c(F)cccc1I (stereo not shown)
3.02^[b]

Moving on to the next compound: CC(C)Oc1ccc([C@H]2CCC[C@H]2NC(=O)c2ccccc2Br)cc1 (relative stereo)
3.81^[b]

Moving on to the next compound: O=C(N[C@@H]1CC[C@@H]1c1c(F)cccc1F)c1ncccc1Cl (relative stereo)
2.73^[b]

Moving on to the next compound: Cn1cc(C(=O)NC2CCCC2c2ccccc2C(F)(F)F)c(C(F)F)n1 (stereo not shown)
3.06^[b]

Moving on to the next compound: CC(C)Oc1ccc([C@H]2CCC[C@H]2NC(=O)c2c(F)cccc2F)cc1 (relative stereo)
3.55^[b]

Moving on to the next compound: O=C(N[C@@H]1CC[C@@H]1c1ccc(F)cc1C(F)(F)F)c1cccc(Cl)c1 (relative stereo)
3.65^[b]

Moving on to the next compound: O=C(N[C@@H]1CC[C@H]1c1ccc(F)cc1C(F)(F)F)c1ccc(Cl)cc1Cl (relative stereo)
4.08^[b]

Moving on to the next compound: O=C(NC1CCCCC1c1ccc(Cl)cc1Cl)c1ccccc1I (stereo not shown)
4.57^[b]

Moving on to the next compound: Cc1nn(C)cc1C(=O)NC1CCCC1c1c(F)cccc1F (stereo not shown)
2.13^[b]

Moving on to the next compound: O=C(NC1CC1c1ccc(Cl)cc1)c1c(F)cc(F)cc1F (stereo not shown)
2.80^[b]

Moving on to the next compound: Cn1cc(C(=O)N[C@@H]2CC[C@@H]2c2ccccc2Cl)c(C(F)F)n1 (relative stereo)
2.47^[b]

Moving on to the next compound: O=C(NC1CCC1c1c(F)cccc1F)c1ccccc1Cl (stereo not shown)
2.97^[b]

Moving on to the next compound: Cn1cc(C(=O)N[C@@H]2CC[C@H]2c2ccccc2Cl)c(C(F)F)n1 (relative stereo)
2.72^[b]

Moving on to the next compound: O=C(NC1CC1c1ccc(Cl)cc1)c1ncccc1C(F)(F)F (stereo not shown)
2.85^[b]

Moving on to the next compound: O=C(N[C@@H]1CC[C@@H]1c1ccccc1Cl)c1ccccc1Cl (relative stereo)
3.08^[b]

Moving on to the next compound: Cc1nc(C(F)(F)F)c(C(=O)N[C@@H]2C[C@@H]2c2ccc(Cl)cc2Cl)s1 (relative stereo)
3.29^[b]

Moving on to the next compound: O=C(NC1CCCCC1c1ccccc1C(F)(F)F)c1cccnc1Cl (stereo not shown)
3.33^[b]

Moving on to the next compound: O=C(N[C@@H]1CCC[C@@H]1c1ccc(C(F)(F)F)cc1)c1sccc1I (relative stereo)
4.21^[b]

Moving on to the next compound: O=C(N[C@@H]1CC[C@@H]1c1ccc(F)cc1C(F)(F)F)c1nccnc1Cl (relative stereo)
2.89^[b]

Moving on to the next compound: O=C(NC1CCCC1c1ccccc1C(F)(F)F)c1ccccc1Cl (stereo not shown)
3.56^[b]

Moving on to the next compound: O=C(NC1CCCCC1c1ccccc1Cl)c1ccccc1C(F)(F)F (stereo not shown)
4.01^[b]

Moving on to the next compound: O=C(NC1CCCC1c1ccc(Cl)cc1)c1ccccc1Cl (stereo not shown)
3.45^[b]

Moving on to the next compound: O=C(NC1CCCC1c1ccccc1Br)c1cccnc1Cl (stereo not shown)
2.80^[b]

Moving on to the next compound: O=C(NC1CCCCC1c1ccccc1C(F)(F)F)c1c(F)cccc1F (stereo not shown)
3.80^[b]

Moving on to the next compound: O=C(N[C@@H]1CC[C@@H]1c1ccccc1Cl)c1cccnc1C(F)(F)F (relative stereo)
2.69^[b]

Moving on to the next compound: O=C(NC1CCC1c1ccc(Cl)cc1Cl)c1ccccc1Br (stereo not shown) [Compound 472]
3.60^[b]

Moving on to the next compound: Cc1nc(C)c(C(=O)NC2CCCCC2c2ccc(Cl)cc2Cl)s1 (stereo not shown)
3.88^[b]

Moving on to the next compound: O=C(NC1CCCC1c1ccccc1Br)c1ccccc1I (stereo not shown)
3.67^[b]

Moving on to the next compound: Cc1nn(C)cc1C(=O)NC1CCCCC1c1ccccc1C(F)(F)F (stereo not shown)
2.87^[b]

Moving on to the next compound: O=C(N[C@@H]1CC[C@H]1c1ccccc1C(F)(F)F)c1c(F)cccc1F (relative stereo)
3.24^[b]

Moving on to the next compound: O=C(NC1CCCC1c1ccccc1C(F)(F)F)c1cccnc1C(F)(F)F (stereo not shown)
3.22^[b]

Moving on to the next compound: O=C(NC1CCCCC1c1ccccc1Br)c1c(F)cccc1F (stereo not shown)
3.78^[b]

Moving on to the next compound: O=C(N[C@@H]1CC[C@H]1c1ccccc1Cl)c1cccnc1C(F)(F)F (relative stereo)
2.89^[b]
